# Assay info: AUC (0 to 6 hrs) in rat at 10 mg/kg, po
# Assay type: ADME, organism-based
# Design: time < 6 hr, dose 10 mg/kg, route oral
# Experimental parameters: plasma
Reported endpoint: AUC(0-t) at 6 h (µM·h)

Record excerpt, results attached:
### Prompt Looking for the measured AUC(0-t) at 6 h of Cc1nc(N[C@H](C)c2ccc(OC(F)(F)F)cc2)nc(N[C@@H]2C[C@H](CO)[C@@H](O)[C@H]2O)c1-c1nc2c(CCC#N)nccc2s1 , can you help?
### Response 0.4

### Prompt Entry Cc1nc(N[C@H](C)c2ccccc2OC(F)(F)F)nc(N[C@@H]2C[C@H](CO)[C@@H](O)[C@H]2O)c1-c1nc2cnccc2s1 please
### Response 0.5

### Prompt Moving on to Cc1nc(Nc2ccccc2)nc(N[C@@H]2C[C@H](CO)[C@@H](O)[C@H]2O)c1-c1nc2cnccc2s1
### Response 0.2

### Prompt Another compound to look at: Cc1nc(N[C@H](C)c2ccc(OC(F)(F)F)cc2)nc(N[C@@H]2C[C@H](CO)[C@@H](O)[C@H]2O)c1-c1nc2cnccc2s1
### Response 1.6

### Prompt Check Cc1nc(N[C@@H](C)c2ccccc2)nc(N[C@@H]2C[C@H](CO)[C@@H](O)[C@H]2O)c1-c1nc2cnccc2s1 too.
### Response 0.1

### Prompt What would you report for COc1cc(OC)cc([C@@H](C)Nc2nc(C)c(-c3nc4cnccc4s3)c(N[C@@H]3C[C@H](CO)[C@@H](O)[C@H]3O)n2)c1 ?
### Response 0.1

### Prompt And what about the compound Cc1cc2sc(-c3c(C)nc(N[C@H](C)c4ccc(OC(F)(F)F)cc4)nc3N[C@@H]3C[C@H](CO)[C@@H](O)[C@H]3O)nc2c(C)n1 ?
### Response 5.6

### Prompt Subsequent entry: Cc1nc(NCC2CC2)nc(N[C@@H]2C[C@H](CO)[C@@H](O)[C@H]2O)c1-c1nc2cnccc2s1
### Response 0.4

P. CCOCCNc1nc(C)c(-c2nc3cnccc3s2)c(N[C@@H]2C[C@H](CO)[C@@H](O)[C@H]2O)n1
Q. Cc1nc(N[C@H](C)c2ccc(OC(F)(F)F)cc2)nc(N[C@@H]2C[C@H](CO)[C@@H](O)[C@H]2O)c1-c1nc2c(C3CCC3)nccc2s1
### Prompt Lower value of AUC(0-t) at 6 h belongs to which: P or Q ? Your answer should be the label attached to the chosen record.
### Response P

Just for reference, ChEMBL document CHEMBL2069243 is where these values come from.
